compounds and their reported solubility
experiment: Aqueous solubility of compound at pH 7.4 buffer; type: physicochemical
ASSAY ENDPOINT: solubility

# COMPOUND, ASSAY ENDPOINT, VALUE REPORTED
data = [
    ("N#Cc1ccc(N2CCC(c3ccc(OCCCCN4CCN(c5ccc6c(c5)CN(C5CCC(=O)NC5=O)C6=O)CC4)cc3)CC2)cc1C(F)(F)F (configuration not stated)", "solubility", "< 2 µM"),
    ("COc1cc(N2CCN(CC3CCN(c4ccc(C5CCN(c6ccc(C#N)c(C(F)(F)F)c6)CC5)cc4)CC3)CC2)cc2c1C(=O)N(C1CCC(=O)NC1=O)C2 (configuration not stated)", "solubility", "< 2 µM"),
]
